B1: library; numbered along this chain (parent)
chain: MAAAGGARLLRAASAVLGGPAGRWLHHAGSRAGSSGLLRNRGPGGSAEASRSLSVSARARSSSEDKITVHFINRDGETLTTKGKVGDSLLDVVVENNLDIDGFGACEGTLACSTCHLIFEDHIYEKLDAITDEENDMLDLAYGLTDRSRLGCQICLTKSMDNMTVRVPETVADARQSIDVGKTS

- Variants of: B1
- procedureDetails: scaled log2 fold change in cell abundance, elesclomol vs control (0 = silent mean, 1 = nonsense mean) (scaled log2 ratio); higher = higher viability under elesclomol (loss of FDX1 cuproptosis function);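 further: variant abundance is its share of total variant reads in each endpoint sample, from next-generation sequencing of the integrated ORF PCR-amplified out of genomic DNA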
- conditionSummary: with ABC1 FDX1 KO; elesclomol 5 nM; glucose 10 mM; 14 days
Each record's class is read off its scaled log2 fold change using these ranges: low value (below -0.1), medium value (-0.1 to below 0.3), high value (0.3 or more)

[[record]]
variantdescriptor = "L89M"
labelclass = "medium value"

[[record]]
variantdescriptor = "T68H"
labelclass = "high value"

[[record]]
variantdescriptor = "R39T"
labelclass = "low value"

[[record]]
variantdescriptor = "G6C"
labelclass = "high value"

[[record]]
variantdescriptor = "A105V"
labelclass = "low value"


### Prompt Assign a bin to L156I
### Response medium value

### Prompt Consider next the variant P43R in the same way.
### Response medium value

### Prompt Consider next the variant D121H in the same way.
### Response low value

### Prompt Consider next the variant N73K in the same way.
### Response medium value

### Prompt Consider next the variant G83W in the same way.
### Response medium value

### Prompt Consider next the variant S63R in the same way.
### Response high value

### Prompt Consider next the variant E77P in the same way.
### Response medium value

### Prompt Consider next the variant A21H in the same way.
### Response low value

### Prompt Consider next the variant Q176Y in the same way.
### Response medium value
